B1: HDV Ribozyme (parent)
chain: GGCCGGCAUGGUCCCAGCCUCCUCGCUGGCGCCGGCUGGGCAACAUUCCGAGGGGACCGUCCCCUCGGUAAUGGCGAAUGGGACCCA

Variants of: B1
Experiment: self-cleavage, relative activity (ratio to wild type); higher = more cleavage; co-transcriptional
MEASURED ENDPOINT: self-cleavage

GGCCGGCAUGGCCCCAGCCUCCUCGCUGGCGCCGGCUGGGCAACAUUCCGAGGGGACCGUCCCCUCGGUAAUGGCGAAUGGGAGCCA [U12C C84G]
0.391
GGCCGGCAUGGUCCCAGCCACCUCGCUGGCGCCGGCUGGGCAUCAUUCCGAGGGGACCGUCCCCUCGGUAAUGGCGAAUGGGACCCA [U20A A43U]
0.0386
GGCCGGCAUGGUCCCAGCCUCCUCGCUGGCGCCGGCUGGGCAACAUUUCGAGGGGACCGUCCCCUCGGUAAUGGCGAAUGGGAACCA [C48U C84A]
0.958
GGCCGGCAUGGUCCCAGCCUCCUCUCUGGCGCCGGCUGGGCAACAUUCCGAGGGGACCGUCCCCUCGGAAAUGGCGAAUGGGACCCA [G25U U69A]
0.196
GGCCGGCAUGGUCCCAGCCUCCUCGCUGGCGCCGGCCGGGCAACAUUCCGAGGGGACCGUCUCCUCGGUAAUGGCGAAUGGGACCCA [U37C C62U]
1.26
GGCCGGCAUGGUCCCAGCCUCCUCGCUGGCGCCGGCUGGGCAACAUUCCGAGGGGACAGUCCCCUCGGUAAUGGCGAAUGGUACCCA [C58A G82U]
0.376
GGCCGGCAUGGUCCCAGCCUCCUCGCUGGCGCCGGCUGGGCAACAUUCCGAGGGGACCGUCCCCUCGGUAACGGCGAGUGGGACCCA [U72C A78G]
0.237
GGCCGGCAUGGUCCCAGCCUCCUCGCUGGCGCCGGCUGGGCAACAUUCCGAGGGGGCCGUCCCCUCGGUAAUGGCGACUGGGACCCA [A56G A78C]
0.203
GGCCGGCAUGGUCCCAGCCUCCUCACUGGCGUCGGCUGGGCAACAUUCCGAGGGGACCGUCCCCUCGGUAAUGGCGAAUGGGACCCA [G25A C32U]
0.169
GGCCGGCAUGGUCCCAGCCUCCUCGCUGGCGCCGGCGGGGCAACAUUCCGAGGGGACCGCCCCCUCGGUAAUGGCGAAUGGGACCCA [U37G U60C]
0.256
GGCCGGCAUGGUCCCAGCCUCCUCGCUGGCGCCGGCUGGGCAAGAUUCCGAGGGGACCGUCCCCUCGGUAGUGGCGAAUGGGACCCA [C44G A71G]
0.646
GGCAGGCAUGGUCCCAGCCUCCUCGCUGGCGCCGGCUGGGCAACAUUCCGAGGGGACCGUCCCCUCGGUAGUGGCGAAUGGGACCCA [C4A A71G]
0.151
GGCUGGCAUGGUCCCAGCCUCCUCGCUGGGGCCGGCUGGGCAACAUUCCGAGGGGACCGUCCCCUCGGUAAUGGCGAAUGGGACCCA [C4U C30G]
0
GUCCGGCAUGGUCCCAGCCUCCUCGCUGGCGCCGGCUGGGCAACAUUCCGAGGGGACCGUCCCCUCGGUAAUGGCGAAUGGUACCCA [G2U G82U]
0.0171
GGCCGGCAUGGUCCCAGCCUCCUCGCUGGCGCCGGCUGGGCAACAUUCCGAGGGGACCGACCCCUCGGUAUUGGCGAAUGGGACCCA [U60A A71U]
1.03
GGCCGGCAUGGUCCCAGCCUCCUCGCUGGCGCCGGCUGGGCAACAUUCUGAGGGGACCGCCCCCUCGGUAAUGGCGAAUGGGACCCA [C49U U60C]
1.04
GGCCGGCAUGGUCCCAGCCUCCUCGCUGGCGCCGGCUCGGCAACAUCCCGAGGGGACCGUCCCCUCGGUAAUGGCGAAUGGGACCCA [G38C U47C]
0.161
GGCCGGCAUGGUCCCAGCCUCCUCGCUGGUGCCGGCUGGGCAACAUUCCGAGGGGACCGUCCUCUCGGUAAUGGCGAAUGGGACCCA [C30U C63U]
0.581
GGCCGGCAUGGUCCCAGCCUCCUCGCUGGCGCCGGCUGGGCAACAUUCCGAGGGGACCUUCCCCUCGGUAAUGGCGAAUCGGACCCA [G59U G80C]
0.141
GGCCGGCAUGGUCCCAGCCUCUUCGCUGGCGCCGGCUGUGCAACAUUCCGAGGGGACCGUCCCCUCGGUAAUGGCGAAUGGGACCCA [C22U G39U]
0.163
GGCCGGCAUGGUCCCAGCCUCCUCGCGGGCGCCGGCUUGGCAACAUUCCGAGGGGACCGUCCCCUCGGUAAUGGCGAAUGGGACCCA [U27G G38U]
0.133
GGCGGGCAUGGUCCCAGCCUCCUCGCUGGCGCCGGCUGGGCAACAUUCCGAGAGGACCGUCCCCUCGGUAAUGGCGAAUGGGACCCA [C4G G53A]
0.277
GGCCGGCAUGGUCCCAGCCUCCUCGCUGGCGCCGGCUGGGCAACAUUCCGAGGGGACGGUCCCCUCGGUAAUGGCGAAUGGGACUCA [C58G C85U]
0.956
GGCCGGCAUGGUCCCAGCCUCCUCGCUGGCGCCGGCUGGGCAACAUUCCGAGGGGACCGUCCCCUCGGUCAUGGCGAACGGGACCCA [A70C U79C]
0.18
GGCCGGCAUGGUCGCAGCCUCCUCGCUGGCGCCGGCUGGGCAACAUUCGGAGGGGACCGUCCCCUCGGUAAUGGCGAAUGGGACCCA [C14G C49G]
0.383
GGCCGGCAUGGUCCCAGCCUCCUCGCUGGCGCCGGCUGGGCAACAUUCCGAGGGGAACGUCCCCUCGGUAAUGGCGUAUGGGACCCA [C57A A77U]
0.486
GGCCGGCAUGGUCCCAGCCUCCUCGCUGGCGCCGGCUGGGCAACAUUCCGAAGGGACCGUCCCCUCGGUAAUGGCGAAAGGGACCCA [G52A U79A]
0.95
GGCCGGCAUGGUCCCAGCCUCCUCUCUGGCGCCGGCUGGUCAACAUUCCGAGGGGACCGUCCCCUCGGUAAUGGCGAAUGGGACCCA [G25U G40U]
0.193
GGCCGGCAUGGUCCCAGCCUCCUCGCUGGCACCGGCUGGGCAACAUUCCGAGGGGACCGUCCUCUCGGUAAUGGCGAAUGGGACCCA [G31A C63U]
0.606
GGCCGGCUUGGUCCCAGCCUCCUCGCUGGCGCCGGCUGGGCAACAUUCCGAGGGGACCGUCCCCUCGGCAAUGGCGAAUGGGACCCA [A8U U69C]
0.646
GGCGGGCAUGGUCCCAGCCUCCUCGCUGGCGCCGGCUGGGCAACAUUCCGAGGGGACCGUCCCCUCGGUAAUGGCGAAUGGGACCUA [C4G C86U]
0.44
GGCCGGCAUGGUCCCAGCCUCCUCGCUGGCGCCGGCUGGGCAACCUUCCGGGGGGACCGUCCCCUCGGUAAUGGCGAAUGGGACCCA [A45C A51G]
0.587
GGCCGGCAUGGUCCCAGCCUCCUCGCUGGAGCCGGCUGGGCAACAUUCCGAGGGGACCGUCCCCGCGGUAAUGGCGAAUGGGACCCA [C30A U65G]
0.441
GGCCGGCAUGGUCCCAGCCUCCUCGCUGGCGCAGGCUGGGCAACAUUCCGAGGGGACCGUCCCCUCGGUACUGGCGAAUGGGACCCA [C33A A71C]
0.248
GCCCGGCAUGGUCCCAGCCUCCUCGCUGGCGCCGGCUGGGCAACAUUCCGAGGGGACCUUCCCCUCGGUAAUGGCGAAUGGGACCCA [G2C G59U]
0.0343
GGCCGGCAUGGUCCCAGCCUCCUCGCUGGCGCCGGCUGGGCAACAUUCCGAGGGGAGCGUCCCCUCGGUAAUGGCGAAUGGGACCCU [C57G A87U]
0.861
GGCCGGCAUGGUCCCAGCCUCCUCGCUGGCGCCGGCUGGGCAACAUUCCGAGGGGAGCGUUCCCUCGGUAAUGGCGAAUGGGACCCA [C57G C61U]
0.967
GGCCGGCAUGGUCCCAGCCUACUCGCUGGCGCCGGCUGGACAACAUUCCGAGGGGACCGUCCCCUCGGUAAUGGCGAAUGGGACCCA [C21A G40A]
0.0647
GGCCGCCAUGGUCCCAGCCUCCUCGCUGGCGCCGGCUGGGCAACAUUCCGAGGGGACCGUCCCCUCGGUAAUGGCGAAUGGCACCCA [G6C G82C]
0.0405
GGCCGGCAUGGUCCCAGCCUCCUUGCUGGCGCCGGCUGGGCAACAUUCCGAGGGGACCGUCCCCUCGGUAAUGGCGAAUCGGACCCA [C24U G80C]
0.179

Numbers sourced from the RNAGym collection of RNA variant scans (doi:10.7554/elife.80360).
